# Experimental Details: growth inhibitors of H69AR lung tumor, primary screen, human, duplicate replicates (AID 580);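 note: 100% = mean luminescence of untreated wells and 0% = no signal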
# Settings: H69AR lung tumor cells viability, ATP luminescence, 72 h; at 10 µM; active compounds read low
Reported Endpoint: viability (%)

>>> df
                                    molecule  measured_result
 0  CCOC(=O)C1CCCn2c1nc1sc3c(c1c2=O)CCCC3 (configuration not stated)             89.1
 1  CC(Sc1nnnn1C)C(=O)Nc1ccc(Oc2ccccc2)cc1 (configuration not stated)             97.8
 2  CCN(CC)S(=O)(=O)c1ccc2oc(C(=O)O)c(C)c2c1              103
 3                  Cc1cccc(NC(=O)CC2CCC2)c1             99.8
 4                   Oc1c(Cl)cc(Cl)c2c1NCCC2             68.8
 5     Cn1c(CN2CCOCC2)nnc1SCC(=O)NCCc1ccccc1             91.8
 6                  Cc1cc(NC(=O)C(C)(C)C)no1             99.2
 7              O=C(O)c1ccccc1C(=O)Nc1ccccc1              105
 8  CCOC(=O)C1(C(=O)OCC)C(c2ccccc2)CC(O)N1C(C)=O (configuration not stated)             86.2
 9  COc1ccc(CCNS(=O)(=O)c2ccc3c(c2)CCN3C(=O)CCC(=O)O)cc1OC             94.1
10  CN(C)S(=O)(=O)n1cnc(-c2ccccc2)c1-c1ccccc1             98.3
11  CCOC(=O)c1ccc(CNC(=O)C(Cc2c[nH]c3ccccc23)NC(C)=O)o1 (configuration not stated)              101

* * *

# Test System: Receptor tyrosine-protein kinase erbB-2 (Homo sapiens) (UniProt P04626)
# Sequence (P04626 whole entry, looked up): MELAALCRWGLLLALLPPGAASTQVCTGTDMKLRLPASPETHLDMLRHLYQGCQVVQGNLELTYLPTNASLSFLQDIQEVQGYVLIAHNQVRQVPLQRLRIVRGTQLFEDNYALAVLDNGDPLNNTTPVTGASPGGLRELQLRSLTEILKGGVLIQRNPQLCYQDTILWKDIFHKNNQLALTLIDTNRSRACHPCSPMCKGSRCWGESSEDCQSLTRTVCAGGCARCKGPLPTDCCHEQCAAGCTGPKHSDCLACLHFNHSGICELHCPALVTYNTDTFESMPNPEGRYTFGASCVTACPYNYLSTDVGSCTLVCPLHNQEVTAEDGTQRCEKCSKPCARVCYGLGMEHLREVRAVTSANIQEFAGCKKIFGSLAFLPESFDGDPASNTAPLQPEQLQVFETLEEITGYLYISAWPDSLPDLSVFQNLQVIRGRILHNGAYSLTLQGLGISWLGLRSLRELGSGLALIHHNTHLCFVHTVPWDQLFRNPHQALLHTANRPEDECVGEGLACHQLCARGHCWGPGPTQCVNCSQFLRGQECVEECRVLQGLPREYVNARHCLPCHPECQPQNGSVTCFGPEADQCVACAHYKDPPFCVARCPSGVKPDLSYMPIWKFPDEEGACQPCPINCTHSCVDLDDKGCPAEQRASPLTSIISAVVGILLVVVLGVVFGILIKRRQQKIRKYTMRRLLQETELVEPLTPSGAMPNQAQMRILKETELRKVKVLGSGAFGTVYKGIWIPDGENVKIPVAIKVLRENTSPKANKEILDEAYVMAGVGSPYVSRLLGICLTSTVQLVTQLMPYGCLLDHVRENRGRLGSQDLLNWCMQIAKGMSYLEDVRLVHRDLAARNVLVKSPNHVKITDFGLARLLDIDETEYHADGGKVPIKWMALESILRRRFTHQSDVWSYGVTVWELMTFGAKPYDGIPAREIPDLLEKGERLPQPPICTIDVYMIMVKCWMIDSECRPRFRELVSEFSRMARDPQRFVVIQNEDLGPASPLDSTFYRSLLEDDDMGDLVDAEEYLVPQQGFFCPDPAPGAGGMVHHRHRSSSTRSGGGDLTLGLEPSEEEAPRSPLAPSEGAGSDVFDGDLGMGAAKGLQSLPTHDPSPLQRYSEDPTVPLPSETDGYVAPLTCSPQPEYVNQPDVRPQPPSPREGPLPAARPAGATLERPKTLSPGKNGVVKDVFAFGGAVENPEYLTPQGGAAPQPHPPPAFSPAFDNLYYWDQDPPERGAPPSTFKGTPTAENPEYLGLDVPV
# Experimental Details: reducers of endogenous Her2 protein level, primary screen, SKBR3 breast tumor cells, AlphaScreen, ATP viability (AID 461);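 note: lower value means less Her2 protein in the cells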
# Settings: 18-24 h, at 10 µM, active compounds read low
Reported Endpoint: Her2 level (%)

>>> print(df.to_string())
                                    molecule  reported_endpoint  measured_result
 0  Cc1c(NC(=O)c2ccc(=O)oc2)c(=O)n(-c2ccccc2)n1C         Her2 level               89
 1  CCOC(=O)N1CCN(C(=O)CN(C)S(=O)(=O)c2ccc(OC)c(OC)c2)CC1         Her2 level             94.5
 2  COc1cc2c(N3CCOCC3)cc(O)c(CC(=O)Nc3ccccc3)c2cc1OC         Her2 level             98.5
 3       COc1ccccc1C(=O)N1CCN(CCc2ccccc2)CC1         Her2 level              124
 4  COc1ccc(C2NC(c3ccc(OC)c(OC)c3OC)C(C)C(=O)C2C)c(OC)c1OC (stereo unspecified)         Her2 level             88.5
 5  CC12COC3(C(=O)Nc4ccc(Cl)cn4)CC1CCC32C (stereo unspecified)         Her2 level              112
 6            COc1ccccc1OC(=O)c1ccc(SC)cc1OC         Her2 level               88
 7  Cc1ccc(-c2nnc(SCC(=O)N3CC(C)CC(C)C3)o2)cc1C (stereo unspecified)         Her2 level              106
 8     CC(=O)c1ccc(NC(=O)c2cc(CC(C)C)on2)cc1         Her2 level              114
 9  Cc1cc(C)c2c(n1)nn1c(N3CCN(c4ccccc4C)CC3)cc(C)nc21         Her2 level             95.5
10  COc1ccc(-c2nc(N)nc(C)c2Oc2ccccc2Br)c(O)c1         Her2 level               74

// provenance: PubChem BioAssay
